- Study target: Adenosine receptor A1 (Homo sapiens)
- Sequence (whole entry): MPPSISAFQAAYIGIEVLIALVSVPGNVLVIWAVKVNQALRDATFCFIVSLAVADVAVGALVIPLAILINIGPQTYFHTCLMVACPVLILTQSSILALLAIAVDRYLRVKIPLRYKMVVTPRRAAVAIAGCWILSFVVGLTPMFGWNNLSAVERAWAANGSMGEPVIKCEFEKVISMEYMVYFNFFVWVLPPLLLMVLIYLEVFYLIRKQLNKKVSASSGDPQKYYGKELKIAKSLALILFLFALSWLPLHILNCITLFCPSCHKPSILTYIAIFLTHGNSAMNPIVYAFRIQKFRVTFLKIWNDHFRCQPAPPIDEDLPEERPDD
- Assay method text: Displacement of [3H]DPCPX from human adenosine A1 receptor expressed in CHO cell membranes assessed as residence time on receptor at 10 times Ki after 90 mins by competition association assay
Let's look at some compounds and their measured TIME.
Write down the numeric answer in h and omit the unit.

Some solved cases for reference:
N#Cc1c(N)nc(SCc2csc(-c3ccccc3F)n2)nc1-c1ccc2c(c1)OCO2 : 0.375
N#Cc1c(N)nc(SCc2csc(-c3ccc(F)cc3)n2)nc1-c1ccc2c(c1)OCO2 : 0.575

Ask: Please give the measured TIME for this compound: "N#Cc1c(N)nc(SCc2csc(-c3cccc(F)c3)n2)nc1-c1ccc2c(c1)OCO2"
Result: 0.55

Ask: Now consider "N#Cc1c(N)nc(SCc2csc(-c3ccc(I)cc3)n2)nc1-c1ccc2c(c1)OCO2" .
Result: 1.06

Ask: Now consider "N#Cc1c(N)nc(SCc2csc(-c3ccc(Cl)cc3)n2)nc1-c1ccc2c(c1)OCO2" .
Result: 0.857

###

Let's look at some compounds and their measured Ratio.
- Study target: Adenosine receptor A1 (Homo sapiens) (UniProt P30542)
- Sequence (whole entry): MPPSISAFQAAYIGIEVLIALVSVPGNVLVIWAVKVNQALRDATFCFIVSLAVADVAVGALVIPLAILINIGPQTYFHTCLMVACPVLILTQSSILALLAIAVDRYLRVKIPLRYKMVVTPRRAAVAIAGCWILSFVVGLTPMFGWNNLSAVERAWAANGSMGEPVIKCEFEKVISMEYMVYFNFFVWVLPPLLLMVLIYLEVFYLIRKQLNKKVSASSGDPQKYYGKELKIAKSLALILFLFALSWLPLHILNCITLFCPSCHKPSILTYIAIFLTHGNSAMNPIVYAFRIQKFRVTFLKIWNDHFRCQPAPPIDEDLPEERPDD
- Assay method text: Ratio for displacement of [3H]DPCPX from human adenosine A1 receptor expressed in CHO cell membranes at 10 times Ki after 15 mins by dual-point competition association assay to ratio for displacement of [3H]DPCPX from human adenosine A1 receptor expressed in CHO cell membranes 10 times Ki after 120 mins by dual-point competition association assay
Simply state the number, no unit and no words.

Ask: Please give the measured Ratio for this compound: "N#Cc1c(N)nc(SCc2csc(-c3ccccc3F)n2)nc1-c1ccc2c(c1)OCO2"
Result: 1.46

Ask: Now consider "N#Cc1c(N)nc(SCc2csc(-c3ccc(Cl)cc3)n2)nc1-c1ccc(O)cc1" .
Result: 0.99

Ask: Now consider "N#Cc1c(N)nc(SCc2csc(-c3ccc(Br)cc3)n2)nc1-c1ccc2c(c1)OCO2" .
Result: 1.67

Ask: Now consider "N#Cc1c(N)nc(SCc2csc(-c3ccc(Cl)cc3)n2)c(C#N)c1-c1ccc(OCCO)cc1" .
Result: 1.42

Ask: Now consider "N#Cc1c(N)nc(SCc2csc(-c3ccc(Cl)cc3)n2)nc1-c1ccc(OCCO)cc1" .
Result: 1.18

Ask: Now consider "N#Cc1c(N)nc(SCc2csc(-c3cccc(Cl)c3)n2)nc1-c1ccc2c(c1)OCO2" .
Result: 1.24

###

- Study target: Adenosine receptor A1 (Homo sapiens, UniProt P30542)
- Assay method text: Agonist activity at human adenosine A1 receptor expressed in HEK293 cells assessed as […] in intracellular cAMP level after 30 mins by EIA
- Type: functional, cell-based
Measure: EC50 (nM)
Write down the numeric answer in nM and omit the unit.

Ask: Please give the measured EC50 for this compound: "CCN(CC)CCN1CCN(C(=O)CCc2cccc(CSc3nc(N)c(C#N)c(-c4ccc(NC(C)=O)cc4)n3)n2)CC1"
Result: 1

###

- Study target: Adenosine receptor A1 (Homo sapiens)
- Sequence (whole entry): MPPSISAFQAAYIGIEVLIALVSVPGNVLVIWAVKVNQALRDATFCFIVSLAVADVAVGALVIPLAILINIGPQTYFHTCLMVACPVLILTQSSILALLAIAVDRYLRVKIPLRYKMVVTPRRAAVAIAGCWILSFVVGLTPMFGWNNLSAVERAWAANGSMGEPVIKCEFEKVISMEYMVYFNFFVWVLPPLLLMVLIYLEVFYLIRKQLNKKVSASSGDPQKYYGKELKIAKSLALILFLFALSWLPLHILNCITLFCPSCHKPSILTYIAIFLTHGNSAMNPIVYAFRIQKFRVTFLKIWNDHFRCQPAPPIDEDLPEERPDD
- Assay method text: Ratio for displacement of [3H]DPCPX from human adenosine A1 receptor expressed in CHO cell membranes at 10 times Ki after 15 mins by dual-point competition association assay to ratio for displacement of [3H]DPCPX from human adenosine A1 receptor expressed in CHO cell membranes 10 times Ki after 120 mins by dual-point competition association assay
Let's look at some molecules and their measured Ratio.
Simply state the number, no unit and no words.

Some solved cases for reference:
COc1ccc(-c2nc(CSc3nc(N)c(C#N)c(-c4ccc5c(c4)OCO5)n3)cs2)cc1 : 1
CC(=O)Nc1ccc(-c2nc(SCc3csc(-c4ccc(Cl)cc4)n3)nc(N)c2C#N)cc1 : 0.97
N#Cc1c(N)nc(SCc2csc(N3CCOCC3)n2)nc1-c1ccc2c(c1)OCO2 : 0.81

Ask: Please give the measured Ratio for this molecule: "N#Cc1c(N)nc(SCc2csc(-c3ccc(F)cc3)n2)nc1-c1ccc2c(c1)OCO2"
Result: 1.22

Ask: Now consider "N#Cc1c(N)nc(SCc2c[nH]cn2)nc1-c1ccc2c(c1)OCO2" .
Result: 1.15

Ask: Now consider "N#Cc1c(N)nc(SCc2coc(-c3cccc(F)c3)n2)nc1-c1ccc2c(c1)OCO2" .
Result: 1.24

Ask: Now consider "N#Cc1c(N)nc(SCc2csc(-c3ccc4c(c3)OCO4)n2)nc1-c1ccc2c(c1)OCO2" .
Result: 0.93

Ask: Now consider "N#Cc1c(N)nc(SCc2csc(-c3ccc(Cl)cc3)n2)nc1-c1ccccc1" .
Result: 1.24

Ask: Now consider "N#Cc1c(N)nc(SCc2csc(-c3ccccc3Cl)n2)nc1-c1ccc2c(c1)OCO2" .
Result: 1.29

###

- Study target: Adenosine receptor A1 (Homo sapiens, UniProt P30542)
- Assay method text: Agonist activity human adenosine A1 receptor expressed in CHO cell membranes assessed as stimulation of [35S]GTPgammaS binding preincubated for 30 mins followed by radioligand addition measured after 90 mins by beta scintillation counting analysis
- Format: functional
Measure: pEC50
// pEC50 here means minus log10 of the molar concentration (mol/L)

N#Cc1c(N)nc(SCc2csc(-c3ccc(Cl)cc3)n2)nc1-c1ccc2c(c1)OCO2 : 8.31
N#Cc1c(N)nc(SCc2csc(N3CCOCC3)n2)nc1-c1ccc2c(c1)OCO2 : 8.74
N#Cc1c(N)nc(SCc2csc(-c3ccccc3)n2)nc1-c1ccc2c(c1)OCO2 : 8.34
N#Cc1c(N)nc(SCc2csc(-c3ccc(Br)cc3)n2)nc1-c1ccc2c(c1)OCO2 : 8.34
N#Cc1c(N)nc(SCc2csc(-c3ccc(I)cc3)n2)nc1-c1ccc2c(c1)OCO2 : 8.02

Ask: What is its pEC50 for Adenosine receptor A1 (Homo sapiens, UniProt P30542)? Entry: "N#Cc1c(N)nc(SCc2csc(-c3ccc(Cl)cc3)n2)nc1-c1ccc(OCCO)cc1"
Result: 7.92

Ask: Now consider "COc1ccc(-c2nc(CSc3nc(N)c(C#N)c(-c4ccc5c(c4)OCO5)n3)cs2)cc1" .
Result: 8.72

Ask: Now consider "CC(=O)Nc1ccc(-c2nc(SCc3csc(-c4ccc(Cl)cc4)n3)nc(N)c2C#N)cc1" .
Result: 8.41

###

- Study target: Adenosine receptor A1 (Homo sapiens, UniProt P30542)
- Assay method text: Displacement of [3H]DPCPX from human adenosine A1 receptor expressed in CHO cell membranes after 1 hr by beta scintillation counting analysis
Let's look at some compounds and their measured pKi.
// pKi here means minus log10 of the molar concentration (mol/L)

Some solved cases for reference:
N#Cc1c(N)nc(SCc2csc(-c3cccc(Cl)c3)n2)nc1-c1ccc2c(c1)OCO2 : 7.38
N#Cc1c(N)nc(SCc2coc(-c3ccc(Cl)cc3)n2)nc1-c1ccc2c(c1)OCO2 : 7.82
N#Cc1c(N)nc(SCc2coc(-c3cccc(F)c3)n2)nc1-c1ccc2c(c1)OCO2 : 7.82
N#Cc1c(N)nc(SCc2csc(-c3ccc4c(c3)OCO4)n2)nc1-c1ccc2c(c1)OCO2 : 8.60
Cc1ccc(-c2nc(CSc3nc(N)c(C#N)c(-c4ccc5c(c4)OCO5)n3)cs2)cc1 : 8.51
N#Cc1c(N)nc(SCc2csc(-c3ccc(F)cc3)n2)nc1-c1ccc2c(c1)OCO2 : 8.17

Next compound, please.
Ask: Please give the measured pKi for this compound: "N#Cc1c(N)nc(SCc2csc(N3CCOCC3)n2)nc1-c1ccc2c(c1)OCO2"
Result: 8.72
